Values compiled from patent US20220347175A1.

Biological target: human Nav1.5 (Homo sapiens)
Construct: expressed in transfected cells; host or cells: CHO-K1 (T-REx System, ThermoFisher Scientific)
Sequence (Q14524 1-2015 isoform Q14524-2): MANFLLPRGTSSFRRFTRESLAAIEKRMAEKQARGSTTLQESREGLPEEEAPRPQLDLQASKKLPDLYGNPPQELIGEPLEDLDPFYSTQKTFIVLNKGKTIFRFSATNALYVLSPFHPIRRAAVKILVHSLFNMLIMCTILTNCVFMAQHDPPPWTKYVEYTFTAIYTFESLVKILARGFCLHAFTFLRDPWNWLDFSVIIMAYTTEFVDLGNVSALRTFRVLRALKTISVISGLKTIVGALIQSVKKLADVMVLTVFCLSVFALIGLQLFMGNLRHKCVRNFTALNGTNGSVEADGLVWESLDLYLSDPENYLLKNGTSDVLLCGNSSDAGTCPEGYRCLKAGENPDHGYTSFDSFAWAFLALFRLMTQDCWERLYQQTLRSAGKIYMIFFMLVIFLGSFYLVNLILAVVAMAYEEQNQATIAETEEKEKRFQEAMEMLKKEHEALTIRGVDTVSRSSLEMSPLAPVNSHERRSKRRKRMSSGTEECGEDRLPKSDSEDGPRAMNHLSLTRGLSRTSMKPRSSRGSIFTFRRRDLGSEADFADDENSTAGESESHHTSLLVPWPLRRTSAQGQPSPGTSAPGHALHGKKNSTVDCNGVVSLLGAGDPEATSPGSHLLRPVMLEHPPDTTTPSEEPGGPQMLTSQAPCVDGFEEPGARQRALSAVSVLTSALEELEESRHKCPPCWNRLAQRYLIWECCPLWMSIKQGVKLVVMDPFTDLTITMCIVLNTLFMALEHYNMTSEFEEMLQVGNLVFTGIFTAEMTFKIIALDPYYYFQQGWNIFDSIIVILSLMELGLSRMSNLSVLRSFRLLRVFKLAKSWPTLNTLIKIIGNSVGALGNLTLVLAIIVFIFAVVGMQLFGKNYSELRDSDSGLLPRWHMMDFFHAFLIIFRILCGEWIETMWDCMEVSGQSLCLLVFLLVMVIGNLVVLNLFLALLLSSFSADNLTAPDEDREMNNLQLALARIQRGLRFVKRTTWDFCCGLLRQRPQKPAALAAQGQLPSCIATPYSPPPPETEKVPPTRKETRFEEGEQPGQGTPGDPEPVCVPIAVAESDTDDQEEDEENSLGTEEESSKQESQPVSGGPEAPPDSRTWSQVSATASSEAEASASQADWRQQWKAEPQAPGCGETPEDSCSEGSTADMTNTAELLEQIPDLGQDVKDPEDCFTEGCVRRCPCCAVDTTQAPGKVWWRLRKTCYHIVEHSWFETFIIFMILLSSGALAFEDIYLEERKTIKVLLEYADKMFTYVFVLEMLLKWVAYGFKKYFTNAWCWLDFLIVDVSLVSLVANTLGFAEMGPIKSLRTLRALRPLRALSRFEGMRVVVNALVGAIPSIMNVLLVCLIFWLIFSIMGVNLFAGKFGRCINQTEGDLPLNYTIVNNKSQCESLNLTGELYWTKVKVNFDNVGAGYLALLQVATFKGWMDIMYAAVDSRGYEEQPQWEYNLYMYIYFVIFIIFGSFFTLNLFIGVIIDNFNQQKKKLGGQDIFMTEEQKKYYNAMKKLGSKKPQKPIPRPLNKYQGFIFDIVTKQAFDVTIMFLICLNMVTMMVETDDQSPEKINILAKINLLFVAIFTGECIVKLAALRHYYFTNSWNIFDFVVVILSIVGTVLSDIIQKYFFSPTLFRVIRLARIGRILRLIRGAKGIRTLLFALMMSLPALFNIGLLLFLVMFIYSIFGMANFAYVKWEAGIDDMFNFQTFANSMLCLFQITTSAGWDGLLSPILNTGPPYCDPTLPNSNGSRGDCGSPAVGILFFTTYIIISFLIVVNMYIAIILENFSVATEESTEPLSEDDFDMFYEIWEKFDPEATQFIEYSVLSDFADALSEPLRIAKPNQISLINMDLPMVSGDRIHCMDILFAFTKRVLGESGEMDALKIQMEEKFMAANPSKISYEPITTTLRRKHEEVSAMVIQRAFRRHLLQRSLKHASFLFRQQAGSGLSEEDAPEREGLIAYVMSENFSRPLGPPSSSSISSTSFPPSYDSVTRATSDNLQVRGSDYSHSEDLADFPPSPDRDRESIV
Test: Amplification of Nav1.5-derived voltage-dependent sodium current (Nav1.5 current), cell line stably expressing human Nav1.5, automated patch clamp
Type: cell-based
Conditions: 10 μmol/L compound; change of the area under the curve of Nav1.5 current (Test Result 1)
Decide using Nav1.5 current amplification rate (%) alone. Strictly below 10%: true. Equal to or above 10%: false.

INSERT INTO measurements (molecule, assayed_target, category) VALUES
  ('CC1CCN(c2ccc(=O)n(CC(=O)Nc3ccc4ncoc4c3)n2)CC1', 'human Nav1.5 (Homo sapiens)', 'true'),
  ('CC1CCN(c2ccc(=O)n(CC(=O)Nc3cccc(C#N)c3)n2)CC1', 'human Nav1.5 (Homo sapiens)', 'false'),
  ('COc1cc(-c2cc(Cl)cs2)nn(CC(=O)Nc2ccn3ccnc3c2)c1=O', 'human Nav1.5 (Homo sapiens)', 'false'),
  ('Cc1cc(=O)n(CC(=O)Nc2ccn3ccnc3c2)nc1C1=CCC(C)(C)CC1', 'human Nav1.5 (Homo sapiens)', 'false'),
  ('COc1cnc(C2=CCN(C(=O)Cn3nc(C4=CCC(C)CC4)ccc3=O)CC2)cn1 (racemic)', 'human Nav1.5 (Homo sapiens)', 'false'),
  ('CC1CC=C(c2ccc(=O)n(CC(=O)N3CCC(c4ccccn4)CC3)n2)CC1 (racemic)', 'human Nav1.5 (Homo sapiens)', 'true'),
  ('CC1CC=C(c2ccc(=O)n(CC(=O)Nc3ccc4oc(C(F)F)nc4c3)n2)CC1 (racemic)', 'human Nav1.5 (Homo sapiens)', 'false'),
  ('CC1CCN(c2ccc(=O)n(CC(=O)Nc3cccc(-n4ccnc4)c3)n2)CC1', 'human Nav1.5 (Homo sapiens)', 'false');

----------
Biological target: human Nav1.5 (Homo sapiens)
Construct: expressed in transfected cells; host or cells: CHO-K1 (T-REx System, ThermoFisher Scientific)
Experiment: Amplification of Nav1.5-derived voltage-dependent sodium current (Nav1.5 current), cell line stably expressing human Nav1.5, automated patch clamp
Format: cell-based
Details: 10 μmol/L compound; change of the area under the curve of Nav1.5 current (Test Result 1); read-out: Nav1.5 current amplification rate (%)
experimental readout: activation at 10 µM (%)

INSERT INTO measurements (compound, experimental_readout, unit_spec, recorded_measurement) VALUES
  ('O=C(Cn1nc(N2CCCC3(CCC3)C2)ccc1=O)Nc1ccc2ocnc2c1', 'activation at 10 µM', '%', 3),
  ('O=C(Cn1nc(N2CCC3(CCC3)CC2)ccc1=O)Nc1ccc2ocnc2c1', 'activation at 10 µM', '%', 13),
  ('COc1cc(=O)n(CC(=O)Nc2ccc3ocnc3c2)nc1N1CCC2(CCCC2)C1', 'activation at 10 µM', '%', 29),
  ('O=C(Cn1nc(C2=CCC(F)(F)CC2)ccc1=O)Nc1ccnc(C(F)(F)F)c1', 'activation at 10 µM', '%', 12),
  ('Cc1c(N2CCC(C)CC2)nn(CC(=O)Nc2ccc(C#N)nc2)c(=O)c1C', 'activation at 10 µM', '%', 56),
  ('O=C(Cn1nc(N2CCC3(CCC3)CC2)ccc1=O)N1CCc2cnccc21', 'activation at 10 µM', '%', 2),
  ('O=C(Cn1nc(N2CCC3(CCCC3)C2)ccc1=O)Nc1ccn2nccc2c1', 'activation at 10 µM', '%', 43),
  ('CC1(C)CN(c2ccc(=O)n(CC(=O)Nc3ccc4ocnc4c3)n2)CCC12CC2(F)F (centres unmarked)', 'activation at 10 µM', '%', -1);
